Quick note: these are pIC50 numbers for system: DYRK1A (Homo sapiens, UniProt Q13627)
pIC50: −log10 of the molar value.
RECORDED METRIC: pIC50

COMPOUND: COC1CCN2C(=O)c3cccc(NC(=O)Nc4ccccn4)c3C2C1 (centres unmarked) [Compound 53]
RECORDED METRIC: pIC50
RESULT: < 5.00
//
COMPOUND: COC1CCN2C(=O)c3cccc(NC(=O)Nc4cc(C)ccn4)c3C2C1 (centres unmarked) [Compound 58]
RECORDED METRIC: pIC50
RESULT: < 5.00
//
COMPOUND: O=C(Nc1cc[nH]n1)Nc1cccc2c1C1CCCCN1C2=O (centres unmarked) [Compound 119]
RECORDED METRIC: pIC50
RESULT: < 5.00
//
COMPOUND: O=C(Nc1cc(O)c2ccccc2n1)Nc1cccc2c1C1CC(O)CCN1C2=O (centres unmarked) [Compound 110]
RECORDED METRIC: pIC50
RESULT: ≤ 5.00
//
COMPOUND: COc1cc(NC(=O)Nc2cccc3c2C2CC4(CCN2C3=O)SCCS4)nc2ccccc12 (centres unmarked) [Compound 49]
RECORDED METRIC: pIC50
RESULT: < 5.00
